Target or test system: Pro-Link-tagged Human GLP-1R (human, UniProt P43220 24-463)
Experimental protocol: cell-based or functional assay
Reported metric: hGLP1R B-Arrestin2 Rel EC50

Tell me measured hGLP1R B-Arrestin2 Rel EC50 for XXEGTFTSDYSIXLDXKAQXEFIEYLIAGGPSSG (D-Tyr1, Aib2, αMeL13, Orn16, K17 conjugated to (2-[2-(2-Amino-ethoxy)-ethoxy]-acetyl)2-(γ-Glu)-CO-(CH2)18-CO2H, Aib20, C-terminal amide (NH2)) [Example 370] please.
9.9 nM

Tell me measured hGLP1R B-Arrestin2 Rel EC50 for FXEGTFTSDYSIXLDKKAQXAFIEYLIAGGPSSGAPPPS (not fully specified; Aib2, αMeL13, K17 conjugated to (2-[2-(2-Amino-ethoxy)-ethoxy]-acetyl)2-(γ-Glu)-CO-(CH2)18-CO2H, Aib20, C-terminal amide (NH2)) [Example 337] please.
17.4 nM

Tell me measured hGLP1R B-Arrestin2 Rel EC50 for YXEGTFTSDYSIXLDEKAQXAFIXYLIAGGPSSGAPPPS (not fully specified; Aib2, αMeL13, K17 conjugated to (2-[2-(2-Amino-ethoxy)-ethoxy]-acetyl)2-(γ-Glu)-CO-(CH2)18-CO2H, Aib20, D-Glu24, C-terminal amide (NH2)) [Example 343] please.
45.5 nM

Tell me measured hGLP1R B-Arrestin2 Rel EC50 for XXEGTXTSDYSIXLDKKAQXAFIEYLIEGGPSSGAPPPS (not fully specified; D-Tyr1, Aib2, αMeF(2F)6, αMeL13, K17 conjugated to (2-[2-(2-Amino-ethoxy)-ethoxy]-acetyl)2-(γ-Glu)-CO-(CH2)18-CO2H, Aib20, C-terminal amide (NH2)) [Example 336] please.
7.78 nM

Tell me measured hGLP1R B-Arrestin2 Rel EC50 for YXEGTFTSDYSIXLDKKAQXAFIEYLIEGGPSSG (Aib2, αMeL13, K17 conjugated to (2-[2-(2-Amino-ethoxy)-ethoxy]-acetyl)2-(γ-Glu)-CO-(CH2)16-CO2H, Aib20, C-terminal amide (NH2)) [Example 300] please.
5.4 nM

Tell me measured hGLP1R B-Arrestin2 Rel EC50 for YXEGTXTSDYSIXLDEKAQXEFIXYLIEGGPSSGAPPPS (Aib2, αMeF(2F)6, αMeL13, K17 conjugated to (2-[2-(2-Amino-ethoxy)-ethoxy]-acetyl)2-(γ-Glu)-CO-(CH2)18-CO2H, Aib20, D-Glu24, C-terminal amide (NH2)) [Example 1] please.
5 nM

Tell me measured hGLP1R B-Arrestin2 Rel EC50 for YXEGTFTSDYSIXLDEKAQXEFIEYLIAGGPSSGAPPPS (Aib2, αMeL13, K17 conjugated to (2-[2-(2-Amino-ethoxy)-ethoxy]-acetyl)2-(γ-Glu)-CO-(CH2)18-CO2H, Aib20, C-terminal amide (NH2)) [Example 331] please.
12.8 nM

Tell me measured hGLP1R B-Arrestin2 Rel EC50 for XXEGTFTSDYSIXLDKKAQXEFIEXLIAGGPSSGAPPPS (D-Tyr1, Aib2, αMeL13, K17 conjugated to (2-[2-(2-Amino-ethoxy)-ethoxy]-acetyl)-(γ-Glu)-CO-(CH2)18-CO2H, Aib20, αMeY25, C-terminal amide (NH2)) [Example 372] please.
9.81 nM

Tell me measured hGLP1R B-Arrestin2 Rel EC50 for XXEGTFTSDYSIXLDXKAQXEFVEYLIAGGPSSGAPPPS (D-Tyr1, Aib2, αMeL13, Orn16, K17 conjugated to (2-[2-(2-Amino-ethoxy)-ethoxy]-acetyl)2-(γ-Glu)-CO-(CH2)18-CO2H, Aib20, C-terminal amide (NH2)) [Example 359] please.
84.1 nM

Tell me measured hGLP1R B-Arrestin2 Rel EC50 for XXEGTFTSDYSIXLDXKAQXAFVEYLIAGGPSSGAPPPS (D-Tyr1, Aib2, αMeL13, Orn16, K17 conjugated to (2-[2-(2-Amino-ethoxy)-ethoxy]-acetyl)2-(γ-Glu)-CO-(CH2)18-CO2H, Aib20, C-terminal amide (NH2)) [Example 358] please.
9.38 nM

Tell me measured hGLP1R B-Arrestin2 Rel EC50 for XXEGTFTSDYSIXLDKKAQXAFIEYLIEGGPSSGAPPPS (not fully specified; D-Tyr1, Aib2, αMeL13, K17 conjugated to (2-[2-(2-Amino-ethoxy)-ethoxy]-acetyl)2-(γ-Glu)-CO-(CH2)18-CO2H, Aib20, C-terminal amide (NH2)) [Example 334] please.
> 10300 nM

Tell me measured hGLP1R B-Arrestin2 Rel EC50 for XXEGTFTSDYSIXLDXKAQXEFIXYLIAGGPSSGAPPPS (D-Tyr1, Aib2, αMeL13, Orn16, K17 conjugated to (2-[2-(2-Amino-ethoxy)-ethoxy]-acetyl)2-(γ-Glu)-CO-(CH2)18-CO2H, Aib20, D-Glu24, C-terminal amide (NH2)) [Example 354] please.
255 nM

Tell me measured hGLP1R B-Arrestin2 Rel EC50 for XXEGTFTSDYSIXLDXKAQXAFVXYLIAGGPSSGAPPPS (D-Tyr1, Aib2, αMeL13, Orn16, K17 conjugated to (2-[2-(2-Amino-ethoxy)-ethoxy]-acetyl)2-(γ-Glu)-CO-(CH2)18-CO2H, Aib20, D-Glu24, C-terminal amide (NH2)) [Example 362] please.
> 11000 nM

Tell me measured hGLP1R B-Arrestin2 Rel EC50 for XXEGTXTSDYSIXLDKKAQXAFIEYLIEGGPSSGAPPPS (not fully specified; D-Tyr1, Aib2, αMeF6, αMeL13, K17 conjugated to (2-[2-(2-Amino-ethoxy)-ethoxy]-acetyl)2-(γ-Glu)-CO-(CH2)18-CO2H, Aib20, C-terminal amide (NH2)) [Example 335] please.
5.31 nM

Tell me measured hGLP1R B-Arrestin2 Rel EC50 for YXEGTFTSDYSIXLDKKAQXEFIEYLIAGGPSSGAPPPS (not fully specified; Aib2, αMeL13, K17 conjugated to (2-[2-(2-Amino-ethoxy)-ethoxy]-acetyl)-(γ-Glu)-CO-(CH2)18-CO2H, Aib20, C-terminal amide (NH2)) [Example 339] please.
10.7 nM

Tell me measured hGLP1R B-Arrestin2 Rel EC50 for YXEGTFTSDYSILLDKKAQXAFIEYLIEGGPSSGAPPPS (Aib2, K17 conjugated to (2-[2-(2-Amino-ethoxy)-ethoxy]-acetyl)2-(γ-Glu)-CO-(CH2)16-CO2H, Aib20, C-terminal amide (NH2)) [Example 315] please.
19.9 nM

Tell me measured hGLP1R B-Arrestin2 Rel EC50 for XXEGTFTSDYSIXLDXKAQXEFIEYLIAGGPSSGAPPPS (D-Tyr1, Aib2, αMeL13, Orn16, K17 conjugated to (2-[2-(2-Amino-ethoxy)-ethoxy]-acetyl)2-(γ-Glu)-CO-(CH2)16-CO2H, Aib20, C-terminal amide (NH2)) [Example 368] please.
47.9 nM

Tell me measured hGLP1R B-Arrestin2 Rel EC50 for YXEGTFTSDYSIXLDKKAQXEFIEXLIAGGPSSGAPPPS (Aib2, αMeL13, K17 conjugated to (2-[2-(2-Amino-ethoxy)-ethoxy]-acetyl)2-(γ-Glu)-CO-(CH2)18-CO2H, Aib20, αMeY25, C-terminal amide (NH2)) [Example 367] please.
6.66 nM

Tell me measured hGLP1R B-Arrestin2 Rel EC50 for XXEGTFTSDYSIXLDXKAQXAFIEXLIAGGPSSGAPPPS (D-Tyr1, Aib2, αMeL13, Orn16, K17 conjugated to (2-[2-(2-Amino-ethoxy)-ethoxy]-acetyl)2-(γ-Glu)-CO-(CH2)18-CO2H, Aib20, αMeY25, C-terminal amide (NH2)) [Example 366] please.
5.57 nM

Tell me measured hGLP1R B-Arrestin2 Rel EC50 for YXEGTFTSDYSIXLDEKAQXAFIEYLIAGGPSSGAPPPS (Aib2, αMeL13, K17 conjugated to (2-[2-(2-Amino-ethoxy)-ethoxy]-acetyl)2-(γ-Glu)-CO-(CH2)18-CO2H, Aib20, C-terminal amide (NH2)) [Example 332] please.
17.1 nM

Tell me measured hGLP1R B-Arrestin2 Rel EC50 for XXEGTFTSDYSIXLDKKAQXAFIXYLIEGGPSSGAPPPS (D-Tyr1, Aib2, αMeL13, K17 conjugated to (2-[2-(2-Amino-ethoxy)-ethoxy]-acetyl)2-(γ-Glu)-CO-(CH2)18-CO2H, Aib20, D-Glu24, C-terminal amide (NH2)) [Example 356] please.
> 10500 nM

Tell me measured hGLP1R B-Arrestin2 Rel EC50 for XXEGTFTSDYSIXLDEKAQXAFIEYLIAGGPSSGAPPPS (not fully specified; D-Tyr1, Aib2, αMeL13, K17 conjugated to (2-[2-(2-Amino-ethoxy)-ethoxy]-acetyl)2-(γ-Glu)-CO-(CH2)18-CO2H, Aib20, C-terminal amide (NH2)) [Example 341] please.
18.8 nM

Tell me measured hGLP1R B-Arrestin2 Rel EC50 for XXEGTFTSDYSIXLDKKAQXEFIEYLIAGGPSSGAPPPS (D-Tyr1, Aib2, αMeL13, K17 conjugated to (2-[2-(2-Amino-ethoxy)-ethoxy]-acetyl)-(γ-Glu)-CO-(CH2)18-CO2H, Aib20, C-terminal amide (NH2)) [Example 378] please.
> 10200 nM

Tell me measured hGLP1R B-Arrestin2 Rel EC50 for XXEGTFTSDYSIXLDKKAQXAFIEYLIAGGPSSGAPPPS (not fully specified; D-Tyr1, Aib2, αMeL13, K17 conjugated to (2-[2-(2-Amino-ethoxy)-ethoxy]-acetyl)2-(γ-Glu)-CO-(CH2)18-CO2H, Aib20, C-terminal amide (NH2)) [Example 340] please.
10.7 nM

Tell me measured hGLP1R B-Arrestin2 Rel EC50 for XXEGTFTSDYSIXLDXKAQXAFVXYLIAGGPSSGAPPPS (D-Tyr1, Aib2, αMeL13, Orn16, K17 conjugated to (2-[2-(2-Amino-ethoxy)-ethoxy]-acetyl)2-(γ-Glu)-CO-(CH2)16-CO2H, Aib20, D-Glu24, C-terminal amide (NH2)) [Example 364] please.
> 12000 nM
